Target: Muscarinic acetylcholine receptor M4 (Homo sapiens) (UniProt P08173)
Sequence (P08173 whole entry): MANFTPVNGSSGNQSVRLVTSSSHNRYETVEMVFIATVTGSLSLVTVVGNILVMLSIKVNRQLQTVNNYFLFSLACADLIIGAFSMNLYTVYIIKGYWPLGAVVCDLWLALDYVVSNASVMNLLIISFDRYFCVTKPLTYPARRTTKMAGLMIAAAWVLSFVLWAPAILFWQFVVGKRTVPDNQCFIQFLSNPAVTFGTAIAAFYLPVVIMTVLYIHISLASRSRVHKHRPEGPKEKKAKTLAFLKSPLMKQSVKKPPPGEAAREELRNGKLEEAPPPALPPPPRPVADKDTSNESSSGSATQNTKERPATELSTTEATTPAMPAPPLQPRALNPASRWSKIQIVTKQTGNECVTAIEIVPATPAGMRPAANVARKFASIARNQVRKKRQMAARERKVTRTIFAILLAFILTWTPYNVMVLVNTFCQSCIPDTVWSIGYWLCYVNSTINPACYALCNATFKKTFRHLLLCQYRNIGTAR
Experiment: Positive allosteric modulation of human muscarinic M4 receptor expressed in CHO Flp-In cells assessed as stimulation of acetylcholine-induced ERK1/2 phosphorylation incubated under green light condition by fluorescence assay relative to control
Assay type: cell-based
Active and inactive are the calls of the source. The calls are words filed in the database; no cut-off is given here.
measureName: Activity

// known answers, use as guide
Cc1cc(C)c(C#N)c(SCC(=O)NCc2ccccc2F)n1: inactive
COc1cc(CNC(=O)CSc2nc(C)cc(C)c2C#N)cc(OC)c1: inactive
COc1ccccc1CNC(=O)CSc1nc(C)cc(C)c1C#N: inactive
Cc1cc(C)c(C#N)c(SCC(=O)NCc2cccc(F)c2)n1: inactive
COc1cccc(CNC(=O)CSc2nc(C)cc(C)c2C#N)c1: inactive
COc1ccc(CNC(=O)CSc2nc(C)cc(C)c2C#N)cc1: inactive

// query Activity value for entry COc1ccc(CNC(=O)CSc2nc(C)cc(C)c2C#N)c(F)c1F
inactive

// query Activity value for entry Cc1cc(C)c(C#N)c(SCC(=O)NCc2cc(F)c(F)cc2F)n1
inactive

// query Activity value for entry Cc1cc(C)c(C#N)c(SCC(=O)NCc2cc(F)ccc2F)n1
inactive
